The origin of these recorded values is the supplement of paper PMC10307832.

system: NCI-H1299; experiment: relative viability (nuclei count vs DMSO), 5 days (fraction); higher = more cells survive; conditions: first compound 4 µM
Provide the recorded relative viability for the entries that follow.

As a guide, the following entries are already answered.
>>> result("COc1cc(N2CCC(C(N)=O)CC2)ccc1Nc1nc(N)c(Cl)c(Nc2ccccc2S(=O)(=O)C(C)C)n1 [HG-5-88-01] + C[C@]1(O)C[C@@H](c2nc(-c3ccc4ccc(-c5ccccc5)nc4c3)c3c(N)nccn32)C1 [Linsitinib] (partner 1 µM)")
1.1
>>> result("COc1cc(N2CCC(C(N)=O)CC2)ccc1Nc1nc(N)c(Cl)c(Nc2ccccc2S(=O)(=O)C(C)C)n1 [HG-5-88-01] + Cc1nc(NC(=O)N2CCC[C@H]2C(N)=O)sc1-c1ccnc(C(C)(C)C(F)(F)F)c1 [Alpelisib] (partner 2 µM)")
1.12
>>> result("Clc1ccc(Nc2nnc(Cc3ccncc3)c3ccccc23)cc1 [Vatalanib] + CS(=O)(=O)CCNCc1ccc(-c2ccc3ncnc(Nc4ccc(OCc5cccc(F)c5)c(Cl)c4)c3c2)o1 [Lapatinib] (partner 2 µM)")
0.969

Then there is this molecule:
Asked: Fill: relative viability (NCI-H1299) for this molecule Clc1ccc(Nc2nnc(Cc3ccncc3)c3ccccc23)cc1 [Vatalanib] + C[C@]1(O)C[C@@H](c2nc(-c3ccc4ccc(-c5ccccc5)nc4c3)c3c(N)nccn32)C1 [Linsitinib] (partner 1 µM)
Given back: 0.967

----------
system: PC-3 [JPC-3]; experiment: relative viability (nuclei count vs DMSO), 5 days (fraction); higher = more cells survive; conditions: first compound 0.04 µM
Provide the recorded relative viability for the entries that follow.
Answers are plain numbers.

Hi! Can you tell me relative viability for each of these compounds?
1. COc1cc(N2CCC(C(N)=O)CC2)ccc1Nc1nc(N)c(Cl)c(Nc2ccccc2S(=O)(=O)C(C)C)n1 [HG-5-88-01] + CC(=O)c1c(C)c2cnc(Nc3ccc(N4CCNCC4)cn3)nc2n(C2CCCC2)c1=O [Palbociclib] (partner 0.5 µM)
2. Clc1ccc(Nc2nnc(Cc3ccncc3)c3ccccc23)cc1 [Vatalanib] + CC1(C)CCC(c2ccc(Cl)cc2)=C(CN2CCN(c3ccc(C(=O)NS(=O)(=O)c4ccc(N[C@H](CCN5CCOCC5)CSc5ccccc5)c(S(=O)(=O)C(F)(F)F)c4)cc3)CC2)C1 [Navitoclax] (partner 0.5 µM)
3. COc1cc(N2CCC(C(N)=O)CC2)ccc1Nc1nc(N)c(Cl)c(Nc2ccccc2S(=O)(=O)C(C)C)n1 [HG-5-88-01] + CC1(C)CCC(c2ccc(Cl)cc2)=C(CN2CCN(c3ccc(C(=O)NS(=O)(=O)c4ccc(N[C@H](CCN5CCOCC5)CSc5ccccc5)c(S(=O)(=O)C(F)(F)F)c4)cc3)CC2)C1 [Navitoclax] (partner 0.5 µM)
4. C[C@@H]1CN(CC(=O)Nc2ccc3c(c2)Cc2cccc(-c4cc(=O)cc(N5CCOCC5)o4)c2S3)C[C@H](C)O1 + CS(=O)(=O)CCNCc1ccc(-c2ccc3ncnc(Nc4ccc(OCc5cccc(F)c5)c(Cl)c4)c3c2)o1 [Lapatinib] (partner 2 µM)

Given back:
[0.485, 0.725, 0.837, 0.512]

----------
tested on: NCI-H2228; test: relative viability (nuclei count vs DMSO), 5 days (fraction); higher = more cells survive; conditions: first compound 0.08 µM
quantity.name: relative viability
Give bare numbers.

>>> recorded_number("CCCCCCCCCCCC1=C(O)C(=O)C=C(O)C1=O [Embelin] + CC(C)C[C@H](NC(=O)[C@H](Cc1ccccc1)NC(=O)c1cnccn1)B(O)O [Bortezomib] (partner 0.002 µM)")
0.939

Hi! Can you tell me relative viability for each of these compounds?
1. CCCCCCCCCCCC1=C(O)C(=O)C=C(O)C1=O [Embelin] + O=C(c1cc(Cc2n[nH]c(=O)c3ccccc23)ccc1F)N1CCN(C(=O)C2CC2)CC1 [Olaparib] (partner 8 µM)
2. CCCCCCCCCCCC1=C(O)C(=O)C=C(O)C1=O [Embelin] + Cc1nc(NC(=O)N2CCC[C@H]2C(N)=O)sc1-c1ccnc(C(C)(C)C(F)(F)F)c1 [Alpelisib] (partner 2 µM)
3. CCCCCCCCCCCC1=C(O)C(=O)C=C(O)C1=O [Embelin] + Cc1cc(Nc2cc(N3CCN(C)CC3)nc(Sc3ccc(NC(=O)C4CC4)cc3)n2)n[nH]1 [Tozasertib] (partner 0.1 µM)
4. CCCCCCCCCCCC1=C(O)C(=O)C=C(O)C1=O [Embelin] + CCNC(=O)c1noc(-c2cc(C(C)C)c(O)cc2O)c1-c1ccc(CN2CCOCC2)cc1 [Luminespib] (partner 0.01 µM)

Given back:
0.474
0.705
0.269
0.148

----------
test system: NCI-H1623; assay: relative viability (nuclei count vs DMSO), 5 days (fraction); higher = more cells survive; details: first compound 0.1265 µM
quantity.name: relative viability
Numbers only.

As a guide, the following entries are already answered.
>>> recorded_number("COc1cc(N2CCC(C(N)=O)CC2)ccc1Nc1nc(N)c(Cl)c(Nc2ccccc2S(=O)(=O)C(C)C)n1 [HG-5-88-01] + COc1cccc2cc(-c3nc([C@H]4CC[C@H](C(=O)O)CC4)n4ncnc(N)c34)[nH]c12 [OSI-027] (partner 0.5 µM)")
0.378
>>> recorded_number("C[C@@H]1CN(CC(=O)Nc2ccc3c(c2)Cc2cccc(-c4cc(=O)cc(N5CCOCC5)o4)c2S3)C[C@H](C)O1 + COc1cccc2cc(-c3nc([C@H]4CC[C@H](C(=O)O)CC4)n4ncnc(N)c34)[nH]c12 [OSI-027] (partner 0.5 µM)")
0.413
>>> recorded_number("C[C@@H]1CN(CC(=O)Nc2ccc3c(c2)Cc2cccc(-c4cc(=O)cc(N5CCOCC5)o4)c2S3)C[C@H](C)O1 + COc1cc2c(Oc3ccc(NC(=O)C4(C(=O)Nc5ccc(F)cc5)CC4)cc3F)ccnc2cc1OCCCN1CCOCC1 [Foretinib] (partner 0.25 µM)")
0.837

Asked: # return recorded relative viability for entry COc1cc(N2CCC(C(N)=O)CC2)ccc1Nc1nc(N)c(Cl)c(Nc2ccccc2S(=O)(=O)C(C)C)n1 [HG-5-88-01] + N=C(N)NC(=N)NCCc1ccccc1 [Phenformin] (partner 250 µM)
Given back: 0.618

----------
Provide the recorded relative viability for the entries that follow.
system: LCLC-103H; assay: relative viability (nuclei count vs DMSO), 5 days (fraction); higher = more cells survive; details: first compound 0.04 µM

>>> result("COc1cc(N2CCC(C(N)=O)CC2)ccc1Nc1nc(N)c(Cl)c(Nc2ccccc2S(=O)(=O)C(C)C)n1 [HG-5-88-01] + CCNC(=O)c1noc(-c2cc(C(C)C)c(O)cc2O)c1-c1ccc(CN2CCOCC2)cc1 [Luminespib] (partner 0.01 µM)")
1.08

Hi! Can you tell me relative viability for each of these molecules?
1. C[C@@H]1CN(CC(=O)Nc2ccc3c(c2)Cc2cccc(-c4cc(=O)cc(N5CCOCC5)o4)c2S3)C[C@H](C)O1 + C[C@]1(O)C[C@@H](c2nc(-c3ccc4ccc(-c5ccccc5)nc4c3)c3c(N)nccn32)C1 [Linsitinib] (partner 1 µM)
2. C[C@@H]1CN(CC(=O)Nc2ccc3c(c2)Cc2cccc(-c4cc(=O)cc(N5CCOCC5)o4)c2S3)C[C@H](C)O1 + O=C(c1cc(Cc2n[nH]c(=O)c3ccccc23)ccc1F)N1CCN(C(=O)C2CC2)CC1 [Olaparib] (partner 8 µM)
3. C[C@@H]1CN(CC(=O)Nc2ccc3c(c2)Cc2cccc(-c4cc(=O)cc(N5CCOCC5)o4)c2S3)C[C@H](C)O1 + COc1cccc2cc(-c3nc([C@H]4CC[C@H](C(=O)O)CC4)n4ncnc(N)c34)[nH]c12 [OSI-027] (partner 0.5 µM)

Given back:
[1.09, 0.71, 0.405]

----------
tested on: EMC-BAC-2; test: relative viability (nuclei count vs DMSO), 5 days (fraction); higher = more cells survive; conditions: first compound 0.01 µM
Provide the recorded relative viability for the entries that follow.
One number for each entry.

As a guide, the following entries are already answered.
>>> recorded_number("CC(C)Oc1cc(Nc2nc(N[C@@H](C)c3ccc(F)cn3)ncc2Cl)n[nH]1 [AZ23] + CC(=O)c1c(C)c2cnc(Nc3ccc(N4CCNCC4)cn3)nc2n(C2CCCC2)c1=O [Palbociclib] (partner 0.5 µM)")
0.527
>>> recorded_number("CC(C)Oc1cc(Nc2nc(N[C@@H](C)c3ccc(F)cn3)ncc2Cl)n[nH]1 [AZ23] + C[C@@H](Oc1cc(-c2cnn(C3CCNCC3)c2)cnc1N)c1c(Cl)ccc(F)c1Cl [Crizotinib] (partner 1 µM)")
0.804
>>> recorded_number("CC(C)Oc1cc(Nc2nc(N[C@@H](C)c3ccc(F)cn3)ncc2Cl)n[nH]1 [AZ23] + CS(=O)(=O)N1CCN(Cc2cc3nc(-c4cccc5[nH]ncc45)nc(N4CCOCC4)c3s2)CC1 [Pictilisib] (partner 1 µM)")
0.535

Asked: Fill: relative viability (EMC-BAC-2) for this molecule CC(C)Oc1cc(Nc2nc(N[C@@H](C)c3ccc(F)cn3)ncc2Cl)n[nH]1 [AZ23] + Nc1ncn([C@H]2C[C@H](O)[C@@H](CO)O2)c(=O)n1 [Decitabine] (partner 2 µM)
Given back: 0.966
